Assay: AGP1-GFP expression modulators, hit retest, confirmation, cell-based, flow cytometry, S. cerevisiae, cherry picks (AID 2273);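 also: median GFP channel fluorescence over the whole cell population gate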
Conditions: S. cerevisiae AGP1-GFP strain, 3 h, at 10 µM
EXPERIMENTAL_ENDPOINT: GFP response, % of DMSO (%)
Numbers only, in %.

                                   molecule    experimental_endpoint  assay_result
0  CC1=C/C(=N\OS(=O)(=O)c2ccccc2)C(C)=CC1=O  GFP response, % of DMSO           108
1           CSc1ccc(-c2cc(=O)c3ccccc3o2)cc1  GFP response, % of DMSO          90.5
2  Cc1ccc(C2=NN(S(C)(=O)=O)C(c3ccc4nccnc4c3)C2)cc1 (stereo unspecified)  GFP response, % of DMSO          96.8

Hi! Can you tell me GFP response, % of DMSO for each of these molecules?
1. Cc1cc(NC(=O)c2cccnc2Cl)ccc1NC(=O)c1cc2ccccc2o1
2. CCSc1nnc(NC(=O)c2nc(S(=O)(=O)Cc3ccc(F)cc3)ncc2Cl)s1
3. CC(=O)c1ccc2c3c(cccc13)C(=O)N(c1c(C)nn(C)c1C)C2=O

Reply:
[98.8, 102, 100]

###

Assay: RPL19A-GFP modulators, yeast TOR pathway, confirmation, cell-based, S. cerevisiae, flow cytometry, cherry picks, mother/daughter gates (AID 2270)
Settings: S. cerevisiae RPL19A-GFP strain, 3 h, measured here: daughter cell gate, at 10 µM, stronger effect = lower value, 100 = same GFP as DMSO wells
EXPERIMENTAL_ENDPOINT: GFP response vs DMSO (%)
One number for each entry, in %.

The examples below pair each entry with its known result.
In [3]: df
Out[3]:
                                   compound  experimental_endpoint  u  assay_result
0          O=C(Nc1nc(-c2ccccc2)cs1)c1cccnc1   GFP response vs DMSO  %           102
1  CCOc1ccc(Nc2ccc(C(=O)O)cc2[N+](=O)[O-])cc1   GFP response vs DMSO  %          98.4
2              CCN(C(=O)c1ccccc1Cl)c1ccccc1   GFP response vs DMSO  %            99
3  CCN(CC)c1ccc2cc(-c3nc4ccccc4[nH]3)c(=O)oc2c1   GFP response vs DMSO  %           106
4     Cc1ccc(NC(=O)CCCSc2nc3ccccc3[nH]2)cc1   GFP response vs DMSO  %          99.1
5          COc1ccccc1/C=C/C=N/NC(=O)c1cccs1   GFP response vs DMSO  %          97.3
6  N=c1n(CCN2CCCCC2)c2ccccc2n1CC(=O)c1ccc(Cl)c(Cl)c1   GFP response vs DMSO  %            99
7  CCCc1[nH]nc2c1C(c1ccc(OC)c(Cn3nc(C)c(Br)c3C)c1)C(C#N)=C(N)O2 (stereo unspecified)   GFP response vs DMSO  %          94.2
8                   O=C(O)CCC(=O)OCC1CCCCC1   GFP response vs DMSO  %          97.6
9  CCc1nnc(NC(=O)c2nc(S(=O)(=O)Cc3cccc(C)c3)ncc2Cl)s1   GFP response vs DMSO  %          93.1

Then this compound:
Per the records, this compound ( Cc1ccc(NC(=O)COc2ccc(Br)cc2C)cc1 ) has GFP response vs DMSO equal to 97.3

The measurements presented in this section are drawn from PubChem BioAssay.
